test system: SK-MEL-2 melanoma; test: NCI tumour cell line growth inhibition, 48 h
Readout: TGI

// worked examples, TGI included
CCCCCN1CCN(c2ncccn2)CC1 ... > 100 µM
COc1c2c3ccccc3nc-2n(C)c2ccccc12 ... > 100 µM
CC(=O)OCc1ccc2oc(=O)c(C(=O)Oc3cccc(Cl)c3)cc2c1 ... > 100 µM
O=C(NO)c1ccc(OCc2cccc(Cl)c2)cc1 ... 70.4 µM
C=CCOc1ccc(/C(N=Nc2ccc(C)cc2)=N/NC(=O)c2ccccc2)cc1OC ... 73.3 µM

The compound listed as Cc1ccc2nc(N/N=C/c3ccc(C)s3)cc(C)c2c1 shows TGI equal to 35.3 µM
